Target: human recombinant HDAC6 (Homo sapiens, UniProt Q9UBN7)
Sequence (Q9UBN7 1-1215): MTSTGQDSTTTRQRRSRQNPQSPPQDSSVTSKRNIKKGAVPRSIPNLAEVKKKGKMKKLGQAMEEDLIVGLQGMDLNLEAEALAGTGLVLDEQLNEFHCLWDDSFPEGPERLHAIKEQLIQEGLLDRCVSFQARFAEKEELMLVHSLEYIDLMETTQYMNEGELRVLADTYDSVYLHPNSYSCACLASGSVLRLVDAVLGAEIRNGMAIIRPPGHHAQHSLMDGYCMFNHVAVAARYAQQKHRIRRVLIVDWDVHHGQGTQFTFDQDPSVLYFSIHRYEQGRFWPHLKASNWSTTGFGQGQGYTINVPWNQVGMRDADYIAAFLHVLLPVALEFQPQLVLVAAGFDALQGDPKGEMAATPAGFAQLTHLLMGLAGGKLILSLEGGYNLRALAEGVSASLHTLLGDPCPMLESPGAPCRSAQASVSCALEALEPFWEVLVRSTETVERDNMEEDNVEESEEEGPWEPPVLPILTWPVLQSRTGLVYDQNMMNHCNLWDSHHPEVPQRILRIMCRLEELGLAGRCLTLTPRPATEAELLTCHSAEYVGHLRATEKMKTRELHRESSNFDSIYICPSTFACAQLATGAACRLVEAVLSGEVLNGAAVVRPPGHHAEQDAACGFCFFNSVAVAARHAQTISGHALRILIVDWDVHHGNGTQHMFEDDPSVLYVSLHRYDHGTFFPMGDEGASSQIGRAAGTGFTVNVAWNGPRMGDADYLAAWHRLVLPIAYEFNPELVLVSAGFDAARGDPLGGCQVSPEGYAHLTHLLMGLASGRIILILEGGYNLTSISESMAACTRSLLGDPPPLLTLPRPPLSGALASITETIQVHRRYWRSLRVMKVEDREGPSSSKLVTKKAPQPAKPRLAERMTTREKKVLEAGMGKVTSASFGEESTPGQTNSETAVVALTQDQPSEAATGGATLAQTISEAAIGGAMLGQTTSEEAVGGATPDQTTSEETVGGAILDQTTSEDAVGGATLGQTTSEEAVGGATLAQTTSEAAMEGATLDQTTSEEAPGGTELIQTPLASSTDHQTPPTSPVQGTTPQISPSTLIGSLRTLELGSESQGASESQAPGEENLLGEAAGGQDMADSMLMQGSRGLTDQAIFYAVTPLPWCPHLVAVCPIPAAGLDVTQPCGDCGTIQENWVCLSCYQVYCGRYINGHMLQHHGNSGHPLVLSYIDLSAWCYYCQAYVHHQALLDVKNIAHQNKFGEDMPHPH
Experiment: HDAC6 enzyme activity inhibition assay (in vitro, fluorimetric)
Settings: human recombinant HDAC6, fluorimetric kit, same protocol as HDAC1
Description: In order to examine the HDAC6 selectivity of the compounds of formula 1 of the present invention by HDAC1 and HDAC6 enzymatic activity inhibition assays, an experiment was performed using a conventional substance as a control. HDAC enzyme activity was measured using a HDAC Fluorimetric Drug Discovery Kit (BML-AK511, 516, Enzo Life Science). […] Based on the resulting values, each IC50 value was calculated using GraphPad Prism4.0 program.
REPORTED_PROPERTY: pIC50
Quick note: pIC50 means taking -log10 of the concentration in moles per liter.

Completed entries (count: 5):
{"columns": ["MOLECULE", "TESTED_SYSTEM", "VALUE_OBSERVED"],
 "data": [
  ["C[C@@H]1CN(Cc2cc(F)c(F)cc2F)C[C@H](C)N1Cc1ccc(C(=O)NO)cc1", "human recombinant HDAC6 (Homo sapiens, UniProt Q9UBN7)", 6.28],
  ["C[C@@H]1CN(Cc2ccc(C(=O)NO)cc2)C[C@H](C)N1Cc1cccc(CN2CCN(C)CC2)c1", "human recombinant HDAC6 (Homo sapiens, UniProt Q9UBN7)", 6.93],
  ["C[C@@H]1CN(Cc2ccc(-c3ccco3)cc2)C[C@H](C)N1Cc1ccc(/C=C/C(=O)NO)cc1", "human recombinant HDAC6 (Homo sapiens, UniProt Q9UBN7)", 6.60],
  ["Cc1nccn1-c1ccccc1CN1C[C@@H](C)N(Cc2ccc(C(=O)NO)cc2)[C@@H](C)C1", "human recombinant HDAC6 (Homo sapiens, UniProt Q9UBN7)", 7.49],
  ["C[C@@H]1CN(Cc2ccc(C(=O)NO)cc2)C[C@H](C)N1Cc1cncnc1", "human recombinant HDAC6 (Homo sapiens, UniProt Q9UBN7)", 5.97]
]}

Entry "C[C@@H]1CN(Cc2ccc(C(=O)NO)cc2)C[C@H](C)N1Cc1ccc2ccccc2c1" , human recombinant HDAC6 (Homo sapiens, UniProt Q9UBN7) data, pIC50 value: 7.13

----------
Here, each record is paired with measured pIC50 data.
Target: human recombinant HDAC1 (Homo sapiens, UniProt Q13547)
Sequence (Q13547 whole entry): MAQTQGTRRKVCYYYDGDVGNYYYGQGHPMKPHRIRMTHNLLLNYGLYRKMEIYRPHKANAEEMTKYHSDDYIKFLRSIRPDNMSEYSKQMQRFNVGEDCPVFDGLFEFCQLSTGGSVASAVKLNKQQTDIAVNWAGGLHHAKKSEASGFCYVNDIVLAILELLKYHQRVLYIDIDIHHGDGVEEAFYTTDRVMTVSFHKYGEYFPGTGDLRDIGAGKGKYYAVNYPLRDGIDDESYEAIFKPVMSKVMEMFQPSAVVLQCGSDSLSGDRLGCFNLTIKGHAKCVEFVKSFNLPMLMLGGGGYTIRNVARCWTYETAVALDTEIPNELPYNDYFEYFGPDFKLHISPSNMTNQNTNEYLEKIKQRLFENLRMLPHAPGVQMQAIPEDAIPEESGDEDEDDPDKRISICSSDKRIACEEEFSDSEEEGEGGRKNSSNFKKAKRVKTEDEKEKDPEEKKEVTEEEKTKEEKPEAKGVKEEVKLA
Assay: HDAC1 enzyme activity inhibition assay (in vitro, fluorimetric)
Conditions: human recombinant HDAC1, fluorimetric kit, 30° C. 60 minutes
Quick note: pIC50 means taking -log10 of the concentration in moles per liter.

{"columns": ["CPD_SMILES", "TESTED_SYSTEM", "pIC50"],
 "data": [
  ["C[C@@H]1CN(Cc2ccc(C(=O)NO)cc2)C[C@H](C)N1C(=O)c1cc[nH]n1", "human recombinant HDAC1 (Homo sapiens, UniProt Q13547)", 5.49],
  ["C[C@@H]1CN(Cc2ccc(-n3ccnc3)cc2)C[C@H](C)N1Cc1ccc(C(=O)NO)cc1", "human recombinant HDAC1 (Homo sapiens, UniProt Q13547)", 5.55],
  ["C[C@@H]1CN(Cc2ccc(C3=CCOCC3)cc2)C[C@H](C)N1Cc1ccc(C(=O)NO)cc1", "human recombinant HDAC1 (Homo sapiens, UniProt Q13547)", 5.70],
  ["C[C@@H]1CN(C(=O)N2CCc3ccccc32)C[C@H](C)N1Cc1ccc(C(=O)NO)cc1", "human recombinant HDAC1 (Homo sapiens, UniProt Q13547)", 5.68],
  ["C[C@@H]1CN(Cc2ccc(CC(=O)NO)cc2)C[C@H](C)N1Cc1ccccc1", "human recombinant HDAC1 (Homo sapiens, UniProt Q13547)", 5.14],
  ["C[C@@H]1CN(Cc2ccc(C(=O)NO)cc2)C[C@H](C)N1Cc1cccc(-c2ccco2)c1", "human recombinant HDAC1 (Homo sapiens, UniProt Q13547)", 5.06],
  ["CC(C)N1CCN(Cc2cccc(CN3[C@H](C)CN(Cc4ccc(C(=O)NO)cc4)C[C@@H]3C)c2)CC1", "human recombinant HDAC1 (Homo sapiens, UniProt Q13547)", 5.35],
  ["Cc1nccn1-c1ccccc1CN1C[C@@H](C)N(Cc2ccc(C(=O)NO)cc2)[C@@H](C)C1", "human recombinant HDAC1 (Homo sapiens, UniProt Q13547)", 5.25]
]}

Consider "CCCCN1C[C@@H](C)N(Cc2ccc(C(=O)NO)cc2)[C@@H](C)C1" . Its measured pIC50 is 4.87

Lab note: measured pIC50 of "C[C@@H]1CN(Cc2cccc(-n3cccc3)c2)C[C@H](C)N1Cc1ccc(C(=O)NO)cc1" was 5.34

Reported pIC50 for "CCN1CCN(Cc2cccc(C(=O)N3[C@H](C)CN(Cc4ccc(C(=O)NO)cc4)C[C@@H]3C)c2)CC1" was 5.46

----------
# HDAC6 selectivity (fold) listing for each entry below
Molecular target: human recombinant HDAC6 (Homo sapiens, UniProt Q9UBN7)
Construct: purchased Calbiochem 382180
Test: HDAC6 enzyme activity inhibition assay (in vitro, fluorimetric)
Assay type: biochemical
Conditions: HDAC6 selectivity over HDAC1
Expressed in fold, but write only the number.

// HDAC6 selectivity (fold) value for C[C@@H]1CN(Cc2ccc(C(=O)NO)cc2)C[C@H](C)N1C(=O)c1ccc(Cl)cc1 [Compound 122] : 717

----------
Listing of recorded IC50 by entry.
Target: human recombinant HDAC1 (Homo sapiens, UniProt Q13547)
Test: HDAC1 enzyme activity inhibition assay (in vitro, fluorimetric)
Conditions: human recombinant HDAC1, fluorimetric kit, 30° C. 60 minutes
Give the value, in units of µM, as a plain number.

{"columns": ["COMPOUND", "REPORTED_PROPERTY", "VALUE_OBSERVED"],
 "data": [
  ["C[C@@H]1CN(C(=O)c2cccc(C3=CCC(C)(C)CC3)c2)C[C@H](C)N1Cc1ccc(C(=O)NO)cc1 [Compound 263]", "IC50", 6.8],
  ["C[C@@H]1CN(Cc2ccccc2-c2ccoc2)C[C@H](C)N1Cc1ccc(C(=O)NO)cc1 [Compound 348]", "IC50", 4.7],
  ["COc1ccc(NC(=O)N2C[C@@H](C)N(Cc3ccc(C(=O)NO)cc3)[C@@H](C)C2)cc1 [Compound 165]", "IC50", 1.4]
]}

Consider now this further compound.
Entry C[C@@H]1CN(Cc2ccc(C(=O)NO)cc2)C[C@H](C)N1Cc1cccc(F)c1 [Compound 225] — recorded IC50 = 1.9

----------
Examples of compounds with documented log10 IC50 follow.
Molecular target: human recombinant HDAC1 (Homo sapiens, UniProt Q13547)
Assay: HDAC1 enzyme activity inhibition assay (in vitro, fluorimetric)
Conditions: human recombinant HDAC1, fluorimetric kit, 30° C. 60 minutes
Values reflect log10 of reported IC50 (µM).

Recorded log10 IC50, per entry:
{"columns": ["CPD_SMILES", "log10 IC50"],
 "data": [
  ["C[C@@H]1CN(Cc2ccccc2C2=CCC(C)(C)CC2)C[C@H](C)N1Cc1ccc(C(=O)NO)cc1", 1.14],
  ["C[C@@H]1CN(Cc2ccc(C(=O)NO)cc2)C[C@H](C)N1Cc1ccccc1-c1ccoc1", 1.27],
  ["Cc1ccc(C(=O)N2[C@H](C)CN(Cc3ccc(C(=O)NO)cc3)C[C@@H]2C)cc1", 0.58],
  ["C[C@@H]1CN(Cc2ccc(C(=O)NO)cc2)C[C@H](C)N1Cc1ccccc1CN1CCOCC1", -0.52]
]}

The compound listed as "C[C@@H]1CN(Cc2ccc(C(=O)NO)cc2)C[C@H](C)N1C(=O)c1cccc(CN2CCN(C)CC2)c1" has a reported log10 IC50 of 0.53

// log10 IC50 value for "C[C@@H]1CN(Cc2ccc(C(=O)NO)cc2)C[C@@H](C)N1Cc1ccccc1" : 0.93

Query "C[C@@H]1CN(Cc2ccc(C(=O)NO)cc2)C[C@H](C)N1Cc1ccccc1" yields log10 IC50 of 1.08
